biological target: human CB2 receptor (Homo sapiens); construct: beta-galactosidase fragment (the cell line's name says 'bgal'; own knowledge: PathHunter enzyme-fragment-complementation lines carry a small beta-gal fragment fused to the receptor's C-terminus); host or cells: CHO-K1 (CHOK1hCB2_bgal), membranes; experiment: [3H]CP55940 displacement assay; assay type: binding; conditions: [3H]CP55940 (~1.5 nM) displacement, CHOK1hCB2_bgal membranes, 25 °C, 2 h; three separate experiments in duplicate
Sequence (P34972 whole entry, the tested form may be a part): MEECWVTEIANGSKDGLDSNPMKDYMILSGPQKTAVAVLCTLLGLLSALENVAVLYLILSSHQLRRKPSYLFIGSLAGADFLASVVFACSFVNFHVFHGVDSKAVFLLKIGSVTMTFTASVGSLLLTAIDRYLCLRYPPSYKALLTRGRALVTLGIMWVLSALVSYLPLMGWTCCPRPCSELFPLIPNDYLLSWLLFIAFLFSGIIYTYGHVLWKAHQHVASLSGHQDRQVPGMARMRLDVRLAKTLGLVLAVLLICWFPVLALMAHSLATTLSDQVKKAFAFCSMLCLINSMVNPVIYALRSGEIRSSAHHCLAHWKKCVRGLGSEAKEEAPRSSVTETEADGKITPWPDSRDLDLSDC
Tag: true (1) if measured pKi ± SEM is not below 7, false (0) if it is.

[ask] Given the entry Cc1ccc(C(=O)NC2CCCC(C)C2C)cc1S(=O)(=O)N1CCOCC1 (stereo not drawn) , answer whether its pKi ± SEM meets or surpasses 7.
[reply] false (0)

[ask] Hi, just wondering whether CCc1ccc(C(=O)NC(C)C23CC4CC(CC(C4)C2)C3)cc1S(=O)(=O)N1CCOCC1 (stereo not drawn) shows pKi ± SEM of 7 or higher.
[reply] true (1)

[ask] Exam item: decide whether the reported pKi ± SEM for Cc1ccc(C(=O)NC23CC4CC(CC(C4)C2)C3)cc1S(=O)(=O)N1CCCCC1 is at least 7.
[reply] true (1)

[ask] Check if pKi ± SEM >= 7 (inclusive). Item: CCOC(=O)c1c(NC(=O)CC23CC4CC(CC(C4)C2)C3)sc2c1CCCC2
[reply] true (1)

[ask] Entry Cc1ccc(NC(=O)C2CCC(C(C)(C)C)CC2)cc1S(=O)(=O)N1CCOCC1 (stereo not drawn) : is its pKi ± SEM no less than 7?
[reply] false (0)

FYI, the data here is from paper PMC6836644.
